The reported measurements were obtained from PubChem BioAssay (NCI).

# System: SNB-75 CNS
# METHOD_DESCRIPTION: NCI tumour cell line growth inhibition, 48 h
Here, each record is paired with measured GI50 data.

Some compounds with recorded GI50:
COc1ccc(/C=C2\CCC/C(=C\c3ccc(OC)c(OC)c3)C2=O)cc1OC
1.29 µM
Nc1nccc(-c2c(-c3ccc(F)cc3)nn3cc(C(F)(F)F)ccc23)n1
> 19.7 µM
O=C1c2cc3c(cc2-c2c1c1ccc(Cl)cc1c(=O)n2C[C@H](O)CO)OCO3
0.0245 µM
CCc1ccc(Nc2cc(C)c3ccc(O)cc3n2)cc1
11.3 µM
Cc1cc(Cl)nc(N(CCNc2ccnc3cc(Cl)ccc23)Cc2ccco2)n1
1.57 µM
ClCCOCCn1cnc2c(Cl)nc(Cl)nc21
13.8 µM

For the next question, use this compound.
Item `OCCCCC#Cc1ccccc1C#Cc1cccc(C(F)(F)F)c1` : provide GI50
14.6 µM
